Values compiled from patent US20170037028A1.

molecular target: GLUT1 (Homo sapiens, UniProt P11166); assay: Indirect measurement of GLUT1 activity by quantification of intracellular ATP levels (glucose induced ATP increase); type: cell-based; parameters: endogenous in cells; host or cells: DLD1 or CHO-K1; conditions: read-out: IC50 regarding glucose induced ATP increase (GLUT1 inhibition)
Sequence (P11166 whole entry, species assumed): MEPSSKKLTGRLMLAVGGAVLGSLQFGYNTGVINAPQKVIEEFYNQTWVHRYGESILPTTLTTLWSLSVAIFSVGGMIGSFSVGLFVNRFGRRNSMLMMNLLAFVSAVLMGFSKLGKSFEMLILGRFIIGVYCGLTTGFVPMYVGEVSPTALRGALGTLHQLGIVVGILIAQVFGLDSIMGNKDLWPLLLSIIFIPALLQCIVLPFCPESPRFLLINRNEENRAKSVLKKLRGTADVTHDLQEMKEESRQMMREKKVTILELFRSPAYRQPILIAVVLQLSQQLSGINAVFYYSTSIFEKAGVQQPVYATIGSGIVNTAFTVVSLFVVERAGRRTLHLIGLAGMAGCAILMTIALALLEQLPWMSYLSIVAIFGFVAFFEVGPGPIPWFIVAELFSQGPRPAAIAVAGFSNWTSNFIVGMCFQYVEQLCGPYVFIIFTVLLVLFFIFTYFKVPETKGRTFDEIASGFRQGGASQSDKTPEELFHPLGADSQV
pIC50: −log10 of the molar value.
metric: pIC50

Some solved entries appear below for comparison.
molecule_smiles=Cc1nn(Cc2ccc(C(N)=O)cn2)c(C)c1NC(=O)c1cc(C(F)(F)F)nc2ccc(Br)cc12 metric=pIC50 result_value=6.99
molecule_smiles=Cc1nn(CCCc2ccc(C#N)cc2)c(C)c1NC(=O)c1cc(C(N)=O)nc2ccccc12 metric=pIC50 result_value=8.66
molecule_smiles=Cc1nn(Cc2ccc(F)c(F)c2)c(C)c1NC(=O)c1cc(C2CC2)nc2ccc(F)cc12 metric=pIC50 result_value=7.61
molecule_smiles=Cc1nn(Cc2ccc(F)cc2)c(C)c1NC(=O)c1cc(C2CC2)nc2cc(Br)ccc12 metric=pIC50 result_value=6.43
molecule_smiles=Cc1nn(Cc2cscn2)c(C)c1NC(=O)c1cc(C(N)=O)nc2ccccc12 metric=pIC50 result_value=7.14
molecule_smiles=Cc1nn(Cc2ccc(F)cc2)c(C)c1NC(=O)c1cc(C(F)(F)F)nc2c(C#N)cccc12 metric=pIC50 result_value=5.55

I. Cc1nn(Cc2cccc(C#N)c2)c(C)c1NC(=O)c1cc(C(N)=O)nc2cc(F)c(Cl)cc12
II. CC(=O)c1cccc(Cn2nc(C)c(NC(=O)c3cc(C(N)=O)nc4cc(F)ccc34)c2C)c1
*Q* Endpoint returns the identifier whose pIC50 is numerically larger, either I or II . Mark your answer with the label of the selected entry.
*A* I
(I: 8.82, II: 7.39)
